Data provenance: patent US10375962B2

Assay: log P by HPLC on a reversed-phase column (C 18), EEC Directive 79/831 Annex V.A8
Format: physicochemical
Details: pH 7.8
Excerpt: Called log P (HCOOH) in the table. Called log P (neutral) in the table.
Would you please tag the item YES when its LOGP_NEUTRAL (log P (neutral)) is 3 or above, and NO when it is below?

Previously resolved entries follow.
- CCS(=O)(=O)c1ccc(-c2cc3ccccc3n2C)nc1-c1nc2cc(C(F)(F)F)ncc2n1C: YES
- CCS(=O)(=O)c1ccc(-n2cnc3ccc(Cl)nc32)nc1-c1nc2cc(C(F)(F)F)ncc2n1C: YES

Input line: Dear colleague, could you confirm whether CCS(=O)(=O)c1ccc(-c2ccc3cn(C)nc3c2)nc1-c1nc2cc(C(F)(F)F)ncc2n1C has LOGP_NEUTRAL (log P (neutral)) at or above 3?
Output line: NO

Input line: Dear colleague, could you confirm whether CCS(=O)(=O)c1ccc(-n2nnc3ccccc32)nc1-c1nc2cc(C(F)(F)F)ncc2n1C has LOGP_NEUTRAL (log P (neutral)) at or above 3?
Output line: YES

Input line: Dear colleague, could you confirm whether CCS(=O)(=O)c1ccc(-n2ccc3nccc(Cl)c32)nc1-c1nc2cc(C(F)(F)F)ncc2n1C has LOGP_NEUTRAL (log P (neutral)) at or above 3?
Output line: NO

Input line: Dear colleague, could you confirm whether CCS(=O)(=O)c1ccc(-n2nc3ccccn3c2=O)nc1-c1nc2cc(C(F)(F)F)ncc2n1C has LOGP_NEUTRAL (log P (neutral)) at or above 3?
Output line: NO
